# Tested on: 92 kDa gelatinase (MMP-9) (Homo sapiens, UniProt P14780)
# Sequence (P14780 107-707 limits assumed): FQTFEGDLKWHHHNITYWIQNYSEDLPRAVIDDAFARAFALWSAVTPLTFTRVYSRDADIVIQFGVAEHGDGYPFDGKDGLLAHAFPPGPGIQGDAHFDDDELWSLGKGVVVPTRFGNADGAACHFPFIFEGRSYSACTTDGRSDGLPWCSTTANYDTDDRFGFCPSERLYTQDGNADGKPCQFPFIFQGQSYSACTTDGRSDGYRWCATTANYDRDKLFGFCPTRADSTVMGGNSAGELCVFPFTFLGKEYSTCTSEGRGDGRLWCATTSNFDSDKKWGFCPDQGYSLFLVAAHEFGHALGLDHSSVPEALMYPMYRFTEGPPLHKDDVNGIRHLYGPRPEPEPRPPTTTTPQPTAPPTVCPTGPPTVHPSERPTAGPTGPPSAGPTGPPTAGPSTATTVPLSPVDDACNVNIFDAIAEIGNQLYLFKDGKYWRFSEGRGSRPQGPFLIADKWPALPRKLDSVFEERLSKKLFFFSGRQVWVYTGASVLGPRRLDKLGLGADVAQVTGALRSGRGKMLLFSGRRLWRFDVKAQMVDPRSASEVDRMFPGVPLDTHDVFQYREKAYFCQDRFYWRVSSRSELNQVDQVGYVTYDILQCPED
# Test method notes: MMP-9 enzyme inhibition assay (coumarin-labeled peptide substrate McaPLGLDpaAR)
# Format: biochemical
# Test context: Table 2, compounds of Formula (VI); read-out: MMP-9 IC50
pIC50: −log10 of the molar value.
pIC50 by entry:
Recorded endpoint: pIC50

CCOc1ccc(CCC[C@@H](C(=O)N2CCC(Oc3ccccn3)CC2)[C@H](O)C(=O)NO)cc1 = 7.35
CCOc1ccc(CCC[C@@H](C(=O)N2CCC(Nc3ccc(O)cc3)CC2)[C@H](O)C(=O)NO)cc1 = 6.88
CCOc1ccc(CCC[C@@H](C(=O)N2CCN(CCN3CCOCC3)CC2)[C@H](O)C(=O)NO)cc1 = 7.28

====

# Tested on: collagenase (MMP-1) (Homo sapiens)
# Test method notes: MMP-1 enzyme inhibition assay (coumarin-labelled peptide substrate McaPLGLDpaAR)
# Assay type: biochemical
Recorded endpoint: IC50

CCOc1ccc(CCC[C@@H](C(=O)N2CCC(Nc3ccccc3)CC2)[C@H](O)C(=O)NO)cc1 = > 5 µM

====

# Tested on: collagenase (MMP-1) (Homo sapiens, UniProt P03956)
# Sequence (P03956 100-469): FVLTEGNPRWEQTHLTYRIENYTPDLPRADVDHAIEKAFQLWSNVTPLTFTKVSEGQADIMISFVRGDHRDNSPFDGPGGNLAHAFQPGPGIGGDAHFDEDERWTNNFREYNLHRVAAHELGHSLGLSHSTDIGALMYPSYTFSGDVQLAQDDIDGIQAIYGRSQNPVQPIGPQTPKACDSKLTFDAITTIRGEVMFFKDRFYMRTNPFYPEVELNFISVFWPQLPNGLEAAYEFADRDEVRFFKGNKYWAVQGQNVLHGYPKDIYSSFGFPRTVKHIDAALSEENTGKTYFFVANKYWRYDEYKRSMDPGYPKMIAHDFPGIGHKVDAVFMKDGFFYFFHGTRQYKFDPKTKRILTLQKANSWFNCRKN
# Test method notes: MMP-1 enzyme inhibition assay (coumarin-labelled peptide substrate McaPLGLDpaAR)
# Format: biochemical
# Test context: Table 2, compounds of Formula (VI); read-out: MMP-1 IC50
pIC50: −log10 of the molar value.
Recorded endpoint: pIC50

CCOc1ccc(CCC[C@@H](C(=O)N2CCC(Oc3ccccn3)CC2)[C@H](O)C(=O)NO)cc1 = < 5.30
CCOc1ccc(CCC[C@@H](C(=O)N2CCN(CCN3CCOCC3)CC2)[C@H](O)C(=O)NO)cc1 = < 5.30
CCOc1ccc(CCC[C@@H](C(=O)N2CCC(Nc3ccc(O)cc3)CC2)[C@H](O)C(=O)NO)cc1 = < 5.30

====

pIC50 by entry:
# Tested on: gelatinase A (MMP-2) (Homo sapiens)
# Sequence (P08253 110-660): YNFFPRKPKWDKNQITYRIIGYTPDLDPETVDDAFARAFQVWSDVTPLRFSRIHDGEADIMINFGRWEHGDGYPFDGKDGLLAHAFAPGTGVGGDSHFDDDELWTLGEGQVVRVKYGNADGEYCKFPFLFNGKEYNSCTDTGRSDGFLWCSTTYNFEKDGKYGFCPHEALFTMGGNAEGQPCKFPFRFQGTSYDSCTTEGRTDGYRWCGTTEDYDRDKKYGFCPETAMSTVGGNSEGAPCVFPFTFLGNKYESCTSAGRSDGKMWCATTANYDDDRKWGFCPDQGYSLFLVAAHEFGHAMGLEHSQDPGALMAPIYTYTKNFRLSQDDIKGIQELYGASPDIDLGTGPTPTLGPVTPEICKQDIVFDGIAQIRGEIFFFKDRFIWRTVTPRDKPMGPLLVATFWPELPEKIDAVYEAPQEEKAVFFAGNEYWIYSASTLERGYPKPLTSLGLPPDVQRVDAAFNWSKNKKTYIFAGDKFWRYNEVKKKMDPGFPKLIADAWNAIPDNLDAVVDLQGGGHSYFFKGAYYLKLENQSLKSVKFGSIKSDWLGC
# Test method notes: MMP-2 enzyme inhibition assay (coumarin-labelled peptide substrate McaPLGLDpaAR)
# Format: biochemical
# Test context: Table 2, compounds of Formula (VI); read-out: MMP-2 IC50
pIC50: −log10 of the molar value.
Recorded endpoint: pIC50

CCOc1ccc(CCC[C@@H](C(=O)N2CCC(Oc3ccccn3)CC2)[C@H](O)C(=O)NO)cc1 = 7.33
CCOc1ccc(CCC[C@@H](C(=O)N2CCC(Nc3ccc(O)cc3)CC2)[C@H](O)C(=O)NO)cc1 = 6.75
CCOc1ccc(CCC[C@@H](C(=O)N2CCN(CCN3CCOCC3)CC2)[C@H](O)C(=O)NO)cc1 = 7.19
